Would you kindly list solubility kinetic for each of these molecules?
# assay summary: Solubility in 2.5% DMSO
# Assay type: physicochemical
Form entry: value (µM) — number only.

IN: Fill in: solubility kinetic of CCCC(=O)Nc1cccc(NC(=O)c2ccccc2Br)c1 is ___
OUT: 24

IN: Next molecule up: O=C(Nc1cccc(NC(=O)c2ccccc2Br)c1)c1cnco1
OUT: 17

----------
# Test system: HepG2
# assay summary: Cytotoxicity against human HepG2 cells assessed as reduction in cell viability
# Format: cell-based
reported metric: CC50

IN: Entry CCCC(=O)Nc1cccc(NC(=O)c2ccccc2Br)c1 : reported CC50 = ?
OUT: > 150 µM

IN: Try the molecule O=C(Nc1cccc(NC(=O)c2ccccc2Br)c1)c1cnco1
OUT: > 150 µM
